- Target desc: human GLP-1 receptor (human, UniProt P43220 24-463)
- Assay explanation: cell-based or functional assay
Readout: cAMP EC50 (1.0% HSA) (nM)
Could you give me the number in nM? Just the number is fine.

Examples with their reported cAMP EC50 (1.0% HSA) follow.
{"columns": ["Binder", "cAMP EC50 (1.0% HSA) / nM"],
 "data": [
  ["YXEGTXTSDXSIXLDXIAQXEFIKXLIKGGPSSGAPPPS (Y-Aib-EGT-αMeF(2F)-TSD-hTyr-SI-αMeL-LD-Orn-IAQ-Aib-EFIK((2-[2-(2-Amino-ethoxy)-ethoxy]-acetyl)2-(γ-Glu)-(10-(4-carboxyphenoxy)decanoyl))-αMeY-LIK((2-[2-(2-Amino-ethoxy)-ethoxy]-acetyl)2-(γ-Glu)-(10-(4-carboxyphenoxy)decanoyl))GGPSSGAPPPS-NH2) [Example 310]", 22],
  ["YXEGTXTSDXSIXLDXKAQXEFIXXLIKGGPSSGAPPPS (Y-Aib-EGT-αMeF(2F)-TSD-OMeY-SI-αMeL-LD-Orn-K((2-[2-(2-Amino-ethoxy)-ethoxy]-acetyl)2-(γ-Glu)-CO-(CH2)10-CH3)AQ-Aib-EFI-(D-Glu)-αMeY-LIK((2-[2-(2-Amino-ethoxy)-ethoxy]-acetyl)2-(γ-Glu)-CO-(CH2)10-CH3)GGPSSGAPPPS-NH2) [Example 290]", 12.1]
]}

Next up:
Given the entry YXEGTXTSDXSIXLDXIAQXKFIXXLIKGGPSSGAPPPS (Y-Aib-EGT-αMeF(2F)-TSD-4Pal-SI-αMeL-LD-Orn-IAQ-Aib-K((2-[2-(2-Amino-ethoxy)-ethoxy]-acetyl)3-(γ-Glu)-CO-(CH2)12-CO2H)FI-(D-Glu)-αMeY-LIK((2-[2-(2-Amino-ethoxy)-ethoxy]-acetyl)3-(γ-Glu)-CO-(CH2)12-CO2H)GGPSSGAPPPS-NH2) [Example 227] , report its measured cAMP EC50 (1.0% HSA).
41.8
